Listing: TGI of selected molecules
# Tested on: CCRF-CEM leukemia
# assayText: NCI tumour cell line growth inhibition, 48 h
quantityName: TGI

1) C#CCNC(=O)NC(CCCCNC(=O)OCc1ccccc1)C(=O)OCc1ccccc1 (configuration not stated)	> 100 µM
2) CN(C)CCCn1c2c(c3cc4c(cc3c1=O)OCO4)C(=O)c1ccccc1-2	3.51 µM
3) C=CCN(CC=C)C(=O)[C@H](CC)[C@@H]1CC[C@@H](C)[C@@H]([C@H](C)[C@@H](O)[C@@H](C)C(=O)[C@H](CC)C2O[C@]3(C=C[C@@H](O)[C@]4(CC[C@@](C)([C@H]5CC[C@](O)(CC)[C@H](C)O5)O4)O3)[C@H](C)C[C@@H]2C)O1 (some centres not stated)	11.5 µM
4) CC(=O)NCCCCN(CCCNC(C)=O)C(=O)OCc1ccccc1	> 100 µM
5) CC(=O)O[C@@H]1[C@H]2[C@@H](OC(=O)c3ccccc3)[C@@H](C)C[C@]2(O)[C@H](OC(C)=O)[C@@]2(C)[C@@H]3C[C@@](C)(OC(C)=O)C[C@@H](OC(C)=O)[C@@]3(OC(C)=O)C[C@@]12C	> 10 µM
6) CCOP(=O)(OCC)C(Cc1ccc(Cl)cc1)NS(=O)(=O)c1ccc(C)cc1 (configuration not stated)	> 100 µM
7) N#CCNC(=O)c1ccc(-c2ccnc(Nc3ccc(N4CCOCC4)cc3)n2)cc1	> 30 µM
8) CC(C)N(C(=O)C12C3C4C1C1C2C3C41C(=O)N(C(C)C)C(C)C)C(C)C (configuration not stated)	> 50 µM
9) CC(=O)OCC(CC[CH2][Sn]([Cl])([Cl])[c]1ccccc1)OC(C)=O (configuration not stated)	68.6 µM
10) CC1CCC2(C)C(CC=C(C=O)C2(O)C=O)C12CO2 (configuration not stated)	4.01 µM
11) CSC(=N)N1N=C2/C(=C/c3ccccc3)CCC[C@H]2[C@H]1c1ccccc1	8.2 µM
12) C=C(C)CCC1CC=[N+]([O-])OC1C(C)(C)C (configuration not stated)	50.5 µM
13) C=C1C(=O)O[C@H]2[C@H]1CC/C(COC(=O)NCc1c[nH]c3ccc(F)cc13)=C\CC[C@@]1(C)O[C@@H]21	1.2 µM
14) O=C(Nc1ccc2[nH]c(C(=O)N3CC(CCl)c4ccc([N+](=O)[O-])cc43)cc2c1)c1cc2ccccc2o1 (configuration not stated)	> 1100 µM
15) CC(C)=CC(=O)OC1C2C(C)=CC(O)C(O)C2(C)C2C3(O)OCC24C(CC(=O)OC14)C(C)C3O (configuration not stated)	0.624 µM
16) Cc1ccc(Cl)cc1-n1c(C)nc2c(cnn2-c2ccnc3c(C(F)(F)F)cccc23)c1=O	> 100 µM
17) CNC(=O)CCCNC(=O)CCCC(=O)OC	> 100 µM
